# maps each entry to its hCD71:HSA
- target_of_assay: T1, human CD71 extracellular domain (human, UniProt P02786 89-760)
- T1 construct: also called hCD71; CD71-ECD
- measurement_description: primary ELISA; signal over HSA control
Output should be the measured figure followed by the unit it is expressed in.

Recorded hCD71:HSA, per entry:
Enquiry: Could you tell me which hCD71:HSA is on file for CD71-binding FN3 domain SEQ ID NO 396 (designed binder) MLPAPKNLVVSRVTEDSARLSWTAPDAAFDSFFIGYLEPQPPGEAIYLTVPGSERSYDLTGLKPGTEYNVTIQGVKGGFPSMPLSAIFTT ?
Return: 165 ratio

Enquiry: GET /values?readout=hCD71:HSA&item= CD71-binding FN3 domain SEQ ID NO 369 (designed binder) MLPAPKNLVVSRVTEDSARLSWTAPDAAFDSFFIGYLEPQPPGEAIVLWVPGSERSYDLTGLKPGTEYNVTIQGVKGGFPSHPLVAKSTT
Return: 172 ratio

Enquiry: Find the recorded hCD71:HSA belonging to CD71-binding FN3 domain SEQ ID NO 350 (designed binder) MLPAPKNLVVSRVTEDSARLSWTAPDAAFDSFFIGYLEPQPPGEAISLFVPGSERSYDLTGLKPGTEYNVTIQGVKGGFPSMPLVAQFTT and report it.
Return: 127 ratio

Now look at this entry.
Enquiry: Item CD71-binding FN3 domain SEQ ID NO 354 (designed binder) MLPAPKNLVVSRVTEDSARLSWTAPDAAFDSFFIGYLEPQPPGEAIQLWVPGSERSYDLTGLKPGTEYNVTIQGVKGGFPSLPLVATFTT has what recorded hCD71:HSA?
Return: 155 ratio
